B1: LINE1-full (parent)
chain: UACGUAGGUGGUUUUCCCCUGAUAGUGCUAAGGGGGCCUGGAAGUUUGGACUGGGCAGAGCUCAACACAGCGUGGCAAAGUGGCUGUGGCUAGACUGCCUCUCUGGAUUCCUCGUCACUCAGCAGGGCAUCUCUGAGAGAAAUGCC

Variants of: B1
Test: self-cleavage, relative activity (ratio to wild type); higher = more cleavage; in vitro, sequencing; the parent is a self-cleaving ribozyme
Classify as follows. Reported self-cleavage greater than or equal to 1: class 1. Reported self-cleavage below: class 0.

Input Sequence | Answer Label
UACGUAGGUGGUUUUCCCCUGACAGUGCUAAGGGGGCCUGGAAGUUUGGACUGGGCAGAGCCCAACACAGCGUGGCAAAGUGGCUGUGGCUAGACUGCCUCUCUGGAUUCCUCGUCACUCAGCAGGGCAUCUCUGAGAGAAAUGCC [U23C U62C] | class 0
UAAGUAGGUGGUAUUCCCCUGAUAGUGCUAAGGGGGCCUGGAAGUUUGGACUGGGCAGAGCUCAACACAGCGUGGCAAAGUGGCUGUGGCUAGACUGCCUCUCUGGAUUCCUCGUCACUCAGCAGGGCAUCUCUGAGAGAAAUGCC [C3A U13A] | class 0
UACGUAGGUGGUUUUCCCCUGAUAGUGCUAAGGGGGCCUGGAAGUUUGGACUGGGCAGAGCUCAACACAGCGUGGCAAAGUGGCUGCGGCUAGACUGCCUCUCUGGAUUCCUCGUCACUAAGCAGGGCAUCUCUGAGAGAAAUGCC [U87C C120A] | class 0
UACGUAGGCGGUUUUCCCCUGAUAGUGCUAAGGGGGCCUGGAAGUUUGGACUGGUCAGAGCUCAACACAGCGUGGCAAAGUGGCUGUGGCUAGACUGCCUCUCUGGAUUCCUCGUCACUCAGCAGGGCAUCUCUGAGAGAAAUGCC [U9C G55U] | class 0
UACGUAGGUGGUUUUCCCCUGAUAGUGCUAAGGGGGCCUGGAAGUUUGGACUGGGCAGAGCUCAACACAGCGUGGCAAAGUGGCUGUGGCUAGACUGCCUCUCUGGAUUCCUCGUCACUCAGCAGGCCAUCUCUGAGAGAAAUGCC [G127C] | class 1
UACGUAGGUGGUUUUCCCCUGAUUGUGCUAAGGGGGCCUGGAAGUUUGGACUGGGCAGAGCUCAACACAGCGUGGCAAAGUGGCUGUGGCUAGACUGCCUCUCUGGAUUCCUCGUCACUCAGCAGGGCAUCUCUGAGAGAAAAGCC [A24U U143A] | class 1
UACGUAGGUGGUUCACCCCUGAUAGUGCUAAGGGGGCCUGGAAGUUUGGACUGGGCAGAGCUCAACACAGCGUGGCAAAGUGGCUGUGGCUAGACUGCCUCUCUGGAUUCCUCGUCACUCAGCAGGGCAUCUCUGAGAGAAAUGCC [U14C U15A] | class 0
UACGUAGGUGGUUUUCCCCUGAUAGUGCUAAGGGGGCCUGGAAGUUUGGACUGGGCAGAGCUCAACACAGCGUGGCAAAGUGGCUGUGGCUAGACUGCCUCUCUGGAUUCCUCGUCACUCAGCAGGGCAUCUCCGAGAGAAGUGCC [U134C A142G] | class 1
UACGUAGGUGGUUUUCCCCUGAUAGUGCUAAGGGGUCCUGGAAGUUUGGACUGGGCAGAGCUCAACACAGCGUGGCAAAGUGGCUGUGGCUAGACUGCCUCUCUGGAUUCCUCGUCACUCAGCAGGGCAUCUCUGAGAGAAAUGCC [G36U] | class 1
UACGUAGGUGGUUUUCCCCUGAUAGUGCUAAGGGGGCCUGGAAGUUUGCACUGGGCAGAGCUCAACACAGCGUGGCAAAGUGGCUGUGGCUAGACUGCCUCUCUGGAUUCCUCGCCACUCAGCAGGGCAUCUCUGAGAGAAAUGCC [G49C U115C] | class 1
UACGUAGGUGGUUUUCCCCUGAUAGUGCUAAGGGGGCCUGGAAGUUUGGACUGGGCAGAGCUCAACACAGCGUGGCAAUGUGGCUGUGGCUAGACUGCCUCUCUGGAUUCCUCGUCACUCAGCAGGGCAUCUCUGAGAGAAACGCC [A79U U143C] | class 1
UACGUAGGUGGUUUUCCCCUGAUAGUGCUAAGGGGGCCUGGAAGUUUGGACUGGGCAGAGCUCAACACAGCGUGGCAAAGUGGCUGUGGCUAGACUGCCCCUCUGGAUUCCUCGUCACUCAGUAGGGCAUCUCUGAGAGAAAUGCC [U100C C123U] | class 1
UACGUAGGUGGUUUUCCCCUGAUAGUGCUAAGGGGGCCUGGAAGUUUGGACUGGGCAGAGCUCAACACAGCGUGGCAAAGUGGCUGUGGCUAGGCUGCCUCUCUGGAUUCCUCGUCACUCAGCAGGGCAUCUCUGAGAGAAAAGCC [A94G U143A] | class 0
UACGUAGGUGGUUUUCCCCUGAUAGUGCUAAGGGGGCCUGGAAGUUUGGACUGGGCAGAGCUCAACACAGCGUGGCAAGGUGGCUGUGGCUAGACUGCCUCUCUGGAUUCCUCGUCACUCAGCAGGGCAUCUCUGAGAGGAAUGCC [A79G A140G] | class 1
UACGUAGGUGGUUUUCCCCUGAUAGUGCUAAGGGGGCCUGGAAGUUUGGACUGGGCAGAGCCCAACACAGCGUGGCAAAGUGGCUGUGGCUAGACUGCCUCUCUGGAUUCCUCGUCACUCAGCAGGGCGUCUCUGAGAGAAAUGCC [U62C A129G] | class 0
UACGUAGGUGGUUUUCCCCUGAUAGUGCUAAGGGGGCCUGGAAGUUUAGACUGGGCAGAGCUCAACACAGCGUGGCAAGGUGGCUGUGGCUAGACUGCCUCUCUGGAUUCCUCGUCACUCAGCAGGGCAUCUCUGAGAGAAAUGCC [G48A A79G] | class 1
UACGUAGGUGGUUUUCCCCUGAUAGUGCUAAGGGGGCUUGGAGGUUUGGACUGGGCAGAGCUCAACACAGCGUGGCAAAGUGGCUGUGGCUAGACUGCCUCUCUGGAUUCCUCGUCACUCAGCAGGGCAUCUCUGAGAGAAAUGCC [C38U A43G] | class 0
UACGUAGGUGGUUUUCCCCUGAUAGUGCUAAGGGGGCCUGGAAGUUUGGAUUGGGCAGAGCUCAACACAGCGUGGCAAAGUGGCUGUGGCUAGACUGCCUCUCUGGAUUCCUCGUCACUCAGCAGGGCAUAUCUGAGAGAAAUGCC [C51U C131A] | class 1
UACGUAGGUGGUUUUCCCCUGAUAGUGCUAAGGGGGCCUGGAAGUUUGGACUGGGCAGAGCUCAACACAGCGUGGCAAAGUGGCUGUGGCUUGACUGCCUCUCAGGAUUCCUCGUCACUCAGCAGGGCAUCUCUGAGAGAAAUGCC [A92U U104A] | class 0
UACGUAAGUGGUUUUCCCCAGAUAGUGCUAAGGGGGCCUGGAAGUUUGGACUGGGCAGAGCUCAACACAGCGUGGCAAAGUGGCUGUGGCUAGACUGCCUCUCUGGAUUCCUCGUCACUCAGCAGGGCAUCUCUGAGAGAAAUGCC [G7A U20A] | class 0
UACGUAGGUGGUUUUCCCCUGAUAGUGCUAAGGGGGCCUGGAAGUUUGGACUGGGCAGAGCUCAACACAGCGUGGCAAAGUGGCAGUGGCUAGACUGCCUCUCUGGAUUCCUCGUCCCUCAGCAGGGCAUCUCUGAGAGAAAUGCC [U85A A117C] | class 0
UACGUAGGUGGUUUUCCCCUGAUAGUGCUAAGGGGGCCUGGAAGUUUGGACUGGGCAGAGCUCAACACAGCGUGGUAAAGUGGCUGUGGCUAGACUGCCUCUCUGGAUUCCUCGUCACUCAGCAGGGCGUCUCUGAGAGAAAUGCC [C76U A129G] | class 1
